- experimental.target: AXL (Homo sapiens)
- Sequence (P30530 26-894): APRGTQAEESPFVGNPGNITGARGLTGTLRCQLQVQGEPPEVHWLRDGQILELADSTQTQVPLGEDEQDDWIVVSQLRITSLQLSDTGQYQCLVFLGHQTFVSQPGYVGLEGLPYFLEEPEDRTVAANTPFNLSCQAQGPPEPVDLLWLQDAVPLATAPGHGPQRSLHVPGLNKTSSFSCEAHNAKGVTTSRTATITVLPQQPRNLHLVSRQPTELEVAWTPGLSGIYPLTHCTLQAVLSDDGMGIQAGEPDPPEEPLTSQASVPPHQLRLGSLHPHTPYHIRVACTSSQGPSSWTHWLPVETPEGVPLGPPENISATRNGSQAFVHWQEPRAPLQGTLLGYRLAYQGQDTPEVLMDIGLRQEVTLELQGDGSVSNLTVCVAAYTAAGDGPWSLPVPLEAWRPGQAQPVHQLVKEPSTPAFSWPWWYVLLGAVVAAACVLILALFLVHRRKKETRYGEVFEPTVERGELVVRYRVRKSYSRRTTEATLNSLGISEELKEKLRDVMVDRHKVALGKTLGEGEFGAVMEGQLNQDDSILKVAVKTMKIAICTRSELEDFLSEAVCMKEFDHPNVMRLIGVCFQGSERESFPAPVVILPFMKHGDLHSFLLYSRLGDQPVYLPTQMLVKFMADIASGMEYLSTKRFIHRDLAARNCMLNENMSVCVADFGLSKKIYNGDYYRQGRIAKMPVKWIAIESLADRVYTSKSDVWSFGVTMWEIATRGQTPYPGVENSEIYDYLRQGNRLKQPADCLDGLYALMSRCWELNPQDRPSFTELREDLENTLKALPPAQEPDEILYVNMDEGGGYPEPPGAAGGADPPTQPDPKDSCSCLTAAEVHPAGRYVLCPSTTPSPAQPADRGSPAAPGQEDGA
measured.property: pIC50
# pIC50 = -log10(concentration in molar units)

(Q) Reported pIC50 for COc1cc2c(Oc3ccc(NC(=O)C4(C(=O)Nc5ccc(F)cc5)CC4)cc3F)ccnc2cc1OCCCCCC(=O)O [crystalline form AB] : what is it?
(A) 9.62

====

I'd be grateful if you could share measured AUClast/D for these entries.
- experimental.protocol: Bioavailability analysis (pharmacokinetics) of crystalline forms in mice
- Format: in vivo
- conditions: gavage, suspension in CMC-Na, mean
Answer by giving the amount and then stating its unit.

(Q) Reported AUClast/D for COc1cc2c(Oc3ccc(NC(=O)C4(C(=O)Nc5ccc(F)cc5)CC4)cc3F)ccnc2cc1OCCCCCC(=O)O [crystalline form F] : what is it?
(A) 50.5 ng·h/mL per mg/kg

(Q) Reported AUClast/D for COc1cc2c(Oc3ccc(NC(=O)C4(C(=O)Nc5ccc(F)cc5)CC4)cc3F)ccnc2cc1OCCCCCC(=O)O [crystalline form M] : what is it?
(A) 58.1 ng·h/mL per mg/kg

(Q) Reported AUClast/D for COc1cc2c(Oc3ccc(NC(=O)C4(C(=O)Nc5ccc(F)cc5)CC4)cc3F)ccnc2cc1OCCCCCC(=O)O [crystalline form AB] : what is it?
(A) 240 ng·h/mL per mg/kg
